Below, each of the compounds is paired with its reported pIC50 value.
Molecular target: Sodium-dependent dopamine transporter (Homo sapiens)
Sequence (Q01959 whole entry): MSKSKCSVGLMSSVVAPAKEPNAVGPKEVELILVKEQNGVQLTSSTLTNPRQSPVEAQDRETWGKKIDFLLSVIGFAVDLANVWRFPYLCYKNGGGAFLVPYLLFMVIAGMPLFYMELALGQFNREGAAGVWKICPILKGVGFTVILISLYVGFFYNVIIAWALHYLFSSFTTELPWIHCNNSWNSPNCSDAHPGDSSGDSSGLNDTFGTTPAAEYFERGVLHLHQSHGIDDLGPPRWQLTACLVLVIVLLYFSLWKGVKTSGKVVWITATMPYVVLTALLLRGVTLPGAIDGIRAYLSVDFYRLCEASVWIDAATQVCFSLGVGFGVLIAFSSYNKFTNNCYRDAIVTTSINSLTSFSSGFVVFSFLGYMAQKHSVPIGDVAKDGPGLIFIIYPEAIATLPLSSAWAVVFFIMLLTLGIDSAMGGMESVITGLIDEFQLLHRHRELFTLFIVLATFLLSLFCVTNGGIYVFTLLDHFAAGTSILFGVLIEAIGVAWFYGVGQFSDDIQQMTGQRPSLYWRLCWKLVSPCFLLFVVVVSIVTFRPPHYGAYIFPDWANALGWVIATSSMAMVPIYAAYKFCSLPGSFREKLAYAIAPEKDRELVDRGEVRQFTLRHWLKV
Experiment: Inhibition of […] reuptake in human DAT expressed in HEK293 cells by microbeta liquid scintillation counting method
Scale: pIC50 equals -log10([C]), with [C] in mol/L.

The following compounds have reported results that may help.
>>> quantitative_readout("Fc1ccc(C(OCCN2CCN(c3ccccc3Cl)CC2)c2ccc(F)cc2)cc1")
5.25
>>> quantitative_readout("Fc1ccc(C(OCCN2CCN(c3ccc(Cl)c(Cl)c3)CC2)c2ccc(F)cc2)cc1")
5.39
>>> quantitative_readout("Fc1ccc(C(OCCN2CCN(c3ccc(Cl)cc3Cl)CC2)c2ccc(F)cc2)cc1")
5.00

Now take the following compound into account.
Entry under test: `Fc1ccc(C(OCCN2CCN(c3cccc(Cl)c3)CC2)c2ccc(F)cc2)cc1` . Its pIC50 was 5.56
